# measurement_target: T1, recombinant, soluble human ASGR-1 (human, UniProt P07306 62-291)
# T1 construct: biotinylated in the binning assay; also called soluble huASGR-1; Soluble ASGR-1 (Amgen)
# T1 sequence: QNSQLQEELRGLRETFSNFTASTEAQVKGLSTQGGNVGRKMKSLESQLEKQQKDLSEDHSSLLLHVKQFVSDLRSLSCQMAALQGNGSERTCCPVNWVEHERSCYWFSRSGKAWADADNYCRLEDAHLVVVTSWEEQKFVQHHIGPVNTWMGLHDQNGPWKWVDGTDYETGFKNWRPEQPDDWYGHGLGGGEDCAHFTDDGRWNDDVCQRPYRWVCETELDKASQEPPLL
# experiment_summary: Octet BLI dissociation, pH 5.6 plus calcium
property_label: % Change Compared to pH 7.4 + Calcium (%)
I only need the number, in %, no unit after it.

Answered cases to consult:
Ask: State the recorded % Change Compared to pH 7.4 + Calcium for this entry: 49C1 (antibody, V domains shown, hybridoma mAb) VH: QVQLVESGGGVVQPGRSLRLSCTASGFTFSSYGMHWVRQAPGKGLEWVAVIWYDGSNKYYADSVKGRFTISRDNSKNTLYLQMNSLRAEDTAVYYCARRYSSSWSGGMDVWGQGTTVTVSS VL: DIVMTQTPLSLSVTPGQPASISCKSSQSLLHREGKTYLYWYLQKPGQAPQFLIFEVSHRFSGVPDRFSGSGSGTDFTLKISRVEAEDVGVYYCMQSIQIPITLGQGTRLEIK
Result: 23

Ask: State the recorded % Change Compared to pH 7.4 + Calcium for this entry: 190C11 (antibody, V domains shown, hybridoma mAb) VH: QVQLVESGGGVVQPGRSLRLSCAASGFTFSSYGMHWVRQAPGKGLEWVAVIWYDGSNKNYADSVKGRFTISRDNSKNTLYLQMNSLRAEDTAVYYCARDQGVGYDGLDVWGQGTTVTVSS VL: DIQMTQSPSSLSASVGDRVTITCRTSQGIGNYLAWFQQKPGKAPKSLLYKTSSLQSGVPSKFSGSGSGTDFTLTISSLQPEDFATYYCQQYMTYPLTFGGGTKVEIK
Result: -6

# next binder below
Ask: State the recorded % Change Compared to pH 7.4 + Calcium for this entry: 68G6 (antibody, V domains shown, hybridoma mAb) VH: QVQLVQFGGEVKKPGSSVKVSCKASGYTFTGYYMHWVRQAPGQGLEWMGSIYRNSGGTNYAQKFQGRVTMTRDKSISTAYMEKSRIRSDDTAVYYCARAFYYGSGTYYNEFDYWGQGTLVTVSS VL: SYEVTQPPSVSVSPGQTASITCSGDKLGDKYTYWYQQKAGQSPFLVIYQDRKRPSGIPDRFSGSNSGNTATLTISGTQAMDAADFYCQAWDNSTAVFGGGTKLTVL
Result: 39
